The measured values listed here are drawn from patent US12448423.

TESTED TARGET: T1, HIS-tagged human NKG2D (human, UniProt P26718 73-216, limits assumed)
T1 construct: Captured on HIS1K biosensors; not shown: HIS tag
T1 sequence (looked up): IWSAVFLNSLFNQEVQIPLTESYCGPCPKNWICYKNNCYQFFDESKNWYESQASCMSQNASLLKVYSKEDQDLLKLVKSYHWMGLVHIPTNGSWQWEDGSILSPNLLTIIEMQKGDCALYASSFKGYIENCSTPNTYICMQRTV
TEST DETAILS: Octet (BLI): His-tagged human NKG2D captured on HIS1K biosensors, dipped into 100 nM bivalent mAb
PARAMETER: pKd
Give only the number. pKd is defined as minus log10 of concentration in molar units.

Which pKd is reported for this binder? XENP27591 (antibody, human IgG1, kappa, V domains shown, bivalent anti-NKG2D mAb, IgG1 with ablation variants; also called 11B2D10[NKG2D]_H0L0_IgG1_PVA_/S267K) VH: QVQLQQSGPELVRPGASVKLSCKASGYTFTSYWMNWVQQRPEQGLEWIGRIDPYDSETHYNQKFKDKAILTVDKSASTAYMQLSSLTSEDSAVYYCAKMGDYSFDYWGQGTTVTVSS VL: DIQLTQSPASLSASVGETVTITCRASGNIHNYLAWYQQKQGKSPQVLVYNAKTLADGVPSRFSGSGSGTQYSLKINSLQPEDFGSYYCQHFWSTTWTFGGGTKLEIKR 9.26

Consider the binder shown here: XENP27600 (antibody, human IgG1, kappa, V domains shown, humanized bivalent anti-NKG2D mAb, IgG1 with ablation variants; also called mAb B[NKG2D]_H1L2_IgG1_PVA_/S267K) VH: QVQLVQSGAEVKKPGASVKVSCKASGYTFTSYWMNWVRQAPGQGLEWMGRIDPYDSETHYNQKFQGRVTMTVDKSTSTAYMELSSLRSEDTAVYYCAKMGDYSFDYWGQGTLVTVSS VL: DIQLTQSPDSLAVSLGERATINCKASGNIHNYLAWYQQKPGQSPKVLVYNAKTLADGVPSRFSGSGSGTDYTLTISSLQAEDVAVYYCQHFWSTTWTFGGGTKVEIKR What is its recorded pKd? 9.23
